system: CD2F1 mice, L1210 leukemia ip, survival T/C; assay: NCI In Vivo Anticancer Drug Screen. Data for tumor model L1210 Leukemia (intraperitoneal) in CD2F1 (CDF1) mice; details: endpoint: mean survival time; dose: 12.5 mg/kg/injection; schedule: Q01DX005 (ip); vehicle: water; higher = longer survival
Toxic doses and inconclusive results are not listed.
ENDPOINT: T/C

Consider the compound shown here: CN1N=C(N)c2cn(C3OC(CO)C4OC(C)(C)OC43)c3ncnc1c23 (centres undefined) What is its recorded T/C?
87 % of control

Any idea what its T/C is? The compound is Nc1nc(N)c2c(n1)=NC(c1cccc3ccccc13)N=2 (centres undefined)
89 % of control

// lookup T/C for NC(=O)c1csc(NC2OC(CO)C(O)C(O)C2O)n1 (centres undefined)
98 % of control

// query T/C value for entry CC1(C)CC(NC(=O)CSc2ncnc3c2ncn3C2OC(CO)C(O)C2O)CC(C)(C)N1O (centres undefined)
96 % of control

May I ask what T/C has been recorded for CNc1ncnc2c1cnn2C1OC(CO)C(O)C1O (centres undefined) ?
93 % of control

Which T/C is listed for Cn1c(=O)c2c(ncn2CCCNCC(O)c2ccc(O)c(O)c2)n(C)c1=O (centres undefined) ?
98 % of control

Please look up its T/C: CCOC(=O)c1ncn(C2OC(CO)C(O)C2O)c1N (centres undefined)
97 % of control

GET /values?readout=T/C&item= CSc1nc(N)c2c(C(N)=O)cc(=O)n(C3OC(CO)C(O)C3O)c2n1 (centres undefined)
96 % of control

Could you share which T/C value was measured for CCSC(CC(O)C(O)C(O)CO)n1cnc2c(Cl)ncnc21 (centres undefined) ?
100 % of control

###

tested on: CD2F1 mice, L1210 leukemia ip, survival T/C; assay: NCI In Vivo Anticancer Drug Screen. Data for tumor model L1210 Leukemia (intraperitoneal) in CD2F1 (CDF1) mice; details: endpoint: mean survival time; dose: 50.0 mg/kg/injection; schedule: Q04DX003 (ip); vehicle: Klucel (hydroxypropylcellulose) (HPC); higher = longer survival
Toxic doses and inconclusive results are not listed.
Hi there, I'd appreciate the recorded T/C for every entry that follows.

Give the measured T/C of `O=c1[nH]n(Cc2ccccc2)c2ccccc12` .
106 % of control

So what does the record say about T/C for CC(=O)OC1C=C2CCC3C(CCC4(C)C(OC(C)=O)CCC34)C2(C)CC1 (centres undefined) ?
106 % of control

Fill in the blank: the reported T/C of `CN(C)/N=N/c1nc[nH]c1C(N)=O` is ____.
103 % of control

State the recorded T/C for this entry: `NC(=O)Cc1c(Cl)n(-c2ccccc2)c2ccccc12`
95 % of control

###

Assignment: determine reported T/C for the given compounds.
tested on: CD2F1 mice, L1210 leukemia ip, survival T/C; assay: NCI In Vivo Anticancer Drug Screen. Data for tumor model L1210 Leukemia (intraperitoneal) in CD2F1 (CDF1) mice; conditions: endpoint: mean survival time; dose: 100.0 mg/kg/injection; schedule: Q04DX003 (ip); vehicle: saline with Tween-80; higher = longer survival
Inconclusive results and toxic doses are left out.

May I ask what T/C has been recorded for `OC(c1ccccc1)(c1ccccc1)c1ccccc1` ?
101 % of control

Quick check: T/C of `Cc1ccc(N=C2C=CC(=O)O2)cc1` ?
98 % of control

Requested field: T/C. Item: `CC(=O)Nc1cccc(C[P+](c2ccccc2)(c2ccccc2)c2ccccc2)c1`
92 % of control

Which T/C is reported for this compound? CCOC(=O)c1c(C)[nH]c(C(=O)C(N=O)C(=O)OCC)c1C (stereo unspecified)
101 % of control

For `N#CCCOCCNCCSC(=O)c1ccccc1` , what is its reported T/C?
95 % of control

Report T/C for `O=C1c2ccccc2C(=O)N1c1ccccc1-c1ccccc1` please.
100 % of control

May I ask what T/C has been recorded for `O=C(O)c1c(Cl)cc(Cl)c(-c2c(Cl)cc(Cl)c(C(=O)O)c2Cl)c1Cl` ?
92 % of control

Recorded T/C for `CCCc1c(C)[nH]c2ccc(C)cc12` , please?
101 % of control

Using the record for COC1=CCC2=C(C1)C1(C)CCCC(C)(CO)C1CC2 (stereo unspecified) , report its T/C.
94 % of control

State the recorded T/C for this entry: `Nc1nc(N)c(N)c(N)n1`
98 % of control

Look up T/C for this compound: O=C(NC(O)C(Cl)(Cl)Cl)C(Cl)(Cl)Cl (stereo unspecified)
104 % of control

Which T/C is listed for `CC(C)(C)c1ccc(S(=O)(=O)CC(=O)O)cc1` ?
104 % of control

// lookup T/C for `Nc1cc(Cl)c(Cl)cc1S(=O)(=O)NO`
95 % of control

Consider the compound shown here: `O=c1oc(-c2ccccc2Cl)nc2cc(Cl)ccc12` What is its recorded T/C?
101 % of control

If you can, please state the reported T/C value of `c1ccc(SSc2ccccc2)cc1` .
100 % of control

Given the compound `CSc1ncc(C(=O)O)c(SC(C)C)n1` , what is its reported T/C?
93 % of control

# T/C lookup, item `CCOC(Cc1cccc2ccccc12)(c1ccccc1)c1ccccc1`
101 % of control

Requested read-out: T/C. Entry: `Cc1ccc(NC2=NCCS2)c(C)c1`
96 % of control

Item `O=[N+]([O-])c1cccc(/C=C/C=C/c2ccc(Cl)c(S(=O)(=O)F)c2)c1` has what recorded T/C?
100 % of control

Need T/C, item CCC(/C=C/C(C)C1CCC2C3CCC45CC4CCC5(C)C3CCC12C)C(C)C (stereo unspecified)
97 % of control

Which measured T/C value corresponds to `CCOC(=O)CN(C=O)C1c2ccccc2-c2ccccc21` ?
99 % of control

What value of measured T/C is listed for `Nc1nc2c(ncn2-c2cccc(C(F)(F)F)c2)c(=O)[nH]1` ?
94 % of control

Can you share its T/C? I mean this compound: `COc1ccc(C2(C#N)CCCC2)cc1`
97 % of control

Fill in the blank: the reported T/C of `C[n+]1ccc(Nc2ccc(NC(=O)c3ccc(Nc4cc[n+](C)c5ccc([N+](=O)[O-])cc45)cc3[N+](=O)[O-])cc2)cc1` is ____.
113 % of control

Which T/C is listed for `COc1ccc2c(c1)CCCC2=O` ?
90 % of control

Given `Brc1nc(Br)c(Br)[nH]1` , state its recorded T/C.
100 % of control

T/C lookup needed for `OCCNc1ccc(I)cc1` , thanks.
105 % of control

Param item = `COC(=O)c1cccc(COc2ccc([N+](=O)[O-])cc2Cl)c1` ; retrieve measured T/C.
101 % of control

I am curious: what T/C value has been reported for `O=[N+]([O-])c1cccc(N=C(Nc2cccc([N+](=O)[O-])c2)c2ccccc2)c1` ?
113 % of control

What measured T/C goes with `O/N=C\c1ccc(/C=N/O)cc1` ?
94 % of control

I'd like to know its T/C. The compound in question is `O=Cc1ccccc1O.O=Cc1ccccc1O.O=Cc1ccccc1O.[La]`
89 % of control

Consider the compound `Cc1ccc(S(=O)(=O)Oc2cccc(C)c2)cc1` and give its measured T/C.
100 % of control

Which T/C value belongs to `O=C(O)c1ccccc1C(=O)CC(O)(C(F)(F)F)C(F)(F)F` ?
101 % of control

Give its T/C value. Item: `COc1ccc(NC(=O)Nc2ccccc2C(F)(F)F)cc1`
98 % of control

// returns reported T/C for input `N#C/C(=C(/C#N)c1ccccc1)c1ccccc1`
96 % of control

// lookup T/C for `Cc1cc(C)c(N)c(Br)c1C`
103 % of control

// returns reported T/C for input Cc1ccc(N2OCCN(C(=O)c3ccc([N+](=O)[O-])cc3)C2c2ccccc2)cc1 (stereo unspecified)
98 % of control

What value of measured T/C is listed for `O=C(CCl)c1cccnc1C(=O)O` ?
98 % of control

Quick check: T/C of `CCOP(=S)(NCCOC)OCC` ?
101 % of control

I would be grateful if you could share the reported T/C for `CC(C)N(CCCC#N)C(C)C` .
97 % of control

Given the compound `O=C(Nc1ccc2c3c(ccc(C(=O)Nc4ccccc4)c13)CC2)c1ccccc1` , what is its reported T/C?
100 % of control

Which T/C value is on record for `c1ccc(C2=NNC(c3ccccn3)=NN2)nc1` ?
97 % of control

For `O=C(CCl)NCCCNC(=O)CCl` , what is its reported T/C?
105 % of control

# input compound: CC1=C(C)C2(C)C1(C)C1(C)C(C)=C(C)C21C (stereo unspecified) ; wanted: its T/C
96 % of control

Can you look up the measured T/C of `O=[N+]([O-])c1ccccc1CSc1ncnc2nc[nH]c12` for me?
110 % of control

Any idea what T/C was measured for `Cc1cc[n+]([O-])c(N(C(=O)c2ccccc2)C(=O)c2ccccc2)c1` ?
95 % of control

Recorded T/C for O=C(NC(Cc1c[nH]c2ccccc12)C(=O)O)c1ccccc1 (stereo unspecified) , please?
109 % of control

So what does the record say about T/C for `C1CC[N-]CC1.CC(=N\O)/C(C)=N/O.CC(=N\O)/C(C)=N/O.[CH2-]CCN1CCOCC1.[Co+2]` ?
112 % of control

Endpoint output: T/C of CCCCC1(C(C)CC(C)(C)C)NC(C)(C)CC(C)O1 (stereo unspecified) . Value?
101 % of control

Look at this compound and give its reported T/C. `O=C(COc1ccccc1)Nc1ccc([N+](=O)[O-])cc1`
100 % of control

Quick one: T/C of `BrC=C=C1CCCCC1` ?
95 % of control

Taken from PubChem BioAssay AID256.
